- TESTED ON: GlcNAc(b1-3)Gal(b1-4)GlcNAc(b1-3)Gal(b1-4)GlcNAc(b1-2)Man(a1-3)[GlcNAc(b1-3)Gal(b1-4)GlcNAc(b1-3)Gal(b1-4)GlcNAc(b1-2)Man(a1-6)]Man(b1-4)GlcNAc(b1-4)GlcNAc
- TEST PROTOCOL: glycan array binding signal (z-score within array); higher = stronger binding
- MEASUREMENT SETUP: glycan notation: IUPAC condensed, linker removed
The sample as a whole holds a higher share of the strongest signals than the screen did.
Group membership follows glycan array binding signal (z-score) per the scheme interval 1 = under 0.8, interval 2 = from 0.8 up to 3, interval 3 = 3 and over

Example entries and their recorded answers appear below.
BINDER | CATEGORY
SBD-G4S3-Fc (protein) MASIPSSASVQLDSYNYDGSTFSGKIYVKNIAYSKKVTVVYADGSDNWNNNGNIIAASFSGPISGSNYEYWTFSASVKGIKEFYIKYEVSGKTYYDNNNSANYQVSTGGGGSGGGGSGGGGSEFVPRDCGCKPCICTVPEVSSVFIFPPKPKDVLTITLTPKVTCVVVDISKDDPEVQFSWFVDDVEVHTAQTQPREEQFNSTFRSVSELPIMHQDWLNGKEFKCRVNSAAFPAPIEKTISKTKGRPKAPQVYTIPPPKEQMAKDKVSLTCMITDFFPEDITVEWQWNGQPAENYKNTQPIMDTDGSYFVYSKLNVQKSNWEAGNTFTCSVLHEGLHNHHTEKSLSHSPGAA | interval 3
AT5G24760(45) (Arabidopsis thaliana), Q8LEB2 (protein) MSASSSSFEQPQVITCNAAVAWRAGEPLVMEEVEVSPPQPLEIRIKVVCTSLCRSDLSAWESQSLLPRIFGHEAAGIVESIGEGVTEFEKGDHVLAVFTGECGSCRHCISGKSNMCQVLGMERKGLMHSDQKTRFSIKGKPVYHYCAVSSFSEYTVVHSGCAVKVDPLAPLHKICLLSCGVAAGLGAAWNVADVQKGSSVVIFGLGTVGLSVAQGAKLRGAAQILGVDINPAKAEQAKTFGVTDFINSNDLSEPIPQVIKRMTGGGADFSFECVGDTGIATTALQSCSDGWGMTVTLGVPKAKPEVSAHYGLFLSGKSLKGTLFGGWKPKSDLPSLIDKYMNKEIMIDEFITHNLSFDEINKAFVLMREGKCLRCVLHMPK | interval 2
Sebin1 (Coprinopsis cinerea), A8PEE3 (protein) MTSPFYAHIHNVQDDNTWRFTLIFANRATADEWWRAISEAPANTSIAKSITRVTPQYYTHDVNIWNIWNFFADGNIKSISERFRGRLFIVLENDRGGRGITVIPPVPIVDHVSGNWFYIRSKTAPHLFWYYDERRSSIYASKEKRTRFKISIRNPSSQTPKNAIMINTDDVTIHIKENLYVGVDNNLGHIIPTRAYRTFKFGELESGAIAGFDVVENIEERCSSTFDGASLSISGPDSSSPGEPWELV | interval 1
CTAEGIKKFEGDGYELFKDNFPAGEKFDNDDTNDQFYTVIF [MUB40 (Lactobacillus reuteri)] | interval 2
MUB70 (Lactobacillus reuteri) (protein) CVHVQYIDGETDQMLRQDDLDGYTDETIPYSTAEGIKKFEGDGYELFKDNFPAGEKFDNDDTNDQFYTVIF | interval 2
EULS2 M2 (Oryza sativa) (protein) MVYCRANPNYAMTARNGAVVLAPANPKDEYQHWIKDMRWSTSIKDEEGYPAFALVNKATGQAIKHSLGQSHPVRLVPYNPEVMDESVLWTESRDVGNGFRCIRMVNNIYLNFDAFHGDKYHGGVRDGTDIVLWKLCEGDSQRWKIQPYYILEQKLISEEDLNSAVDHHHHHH | interval 1
Langerin K299A/K313A (Homo sapiens), Q9UJ71 (protein) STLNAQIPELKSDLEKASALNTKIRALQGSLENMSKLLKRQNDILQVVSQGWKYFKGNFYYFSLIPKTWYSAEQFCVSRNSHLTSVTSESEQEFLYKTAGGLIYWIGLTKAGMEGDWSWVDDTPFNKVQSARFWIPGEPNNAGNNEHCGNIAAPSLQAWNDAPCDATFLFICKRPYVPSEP | interval 2
TIM1 (protein) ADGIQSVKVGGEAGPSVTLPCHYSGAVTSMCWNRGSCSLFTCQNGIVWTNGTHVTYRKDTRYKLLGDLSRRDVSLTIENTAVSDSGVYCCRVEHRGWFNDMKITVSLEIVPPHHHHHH | interval 3

Please examine the following record next.
Challenge: Just checking, what class would you give Erv46-EDTA (Saccharomyces cerevisiae), P39727 (protein) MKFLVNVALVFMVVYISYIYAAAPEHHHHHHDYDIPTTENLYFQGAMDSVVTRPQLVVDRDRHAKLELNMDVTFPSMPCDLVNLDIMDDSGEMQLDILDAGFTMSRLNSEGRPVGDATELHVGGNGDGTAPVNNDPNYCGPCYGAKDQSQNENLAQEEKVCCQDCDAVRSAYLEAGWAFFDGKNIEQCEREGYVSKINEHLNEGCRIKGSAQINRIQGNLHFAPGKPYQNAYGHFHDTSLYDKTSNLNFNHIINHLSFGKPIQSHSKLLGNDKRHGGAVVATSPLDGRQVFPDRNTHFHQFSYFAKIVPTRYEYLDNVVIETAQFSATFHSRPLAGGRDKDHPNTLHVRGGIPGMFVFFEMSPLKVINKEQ here?
Response given: interval 3
